- System: HeLa cells
- ASSAY PROCEDURE: Dose-response growth inhibition (GI50) of select compounds
- Assay type: cell-based
- ASSAY CONDITIONS: Homo sapiens, HeLa
READOUT NAME: GI50

### Prompt Query (compound): Cn1cnc2c(F)c(Nc3ccc(Br)cc3Cl)c(C(=O)NOCCO)cc21 [AZD6244, reference compound] ; field requested: GI50
### Response > 10 µM

### Prompt Also CC(C)COc1ccc(/C=C2\SC(=O)N(CCN)C2=O)cc1 [Compound 30g] , if possible.
### Response ~100 µM

### Prompt Also "CCOc1ccc(/C=C2\SC(=O)N(CCN)C2=O)cc1" , if possible.
### Response > 100 µM

### Prompt Also NCCN1C(=O)S/C(=C\c2ccc(OCc3ccccc3)cc2)C1=O [Compound 30h] , if possible.
### Response > 100 µM

### Prompt Also CCCS(=O)(=O)Nc1ccc(F)c(C(=O)c2c[nH]c3ncc(-c4ccc(Cl)cc4)cc23)c1F [PLX4032, reference compound] , if possible.
### Response > 10 µM

###

- TEST TARGET: ERK2 L232A (Rattus norvegicus (Rat), UniProt P63086, L232A)
- Sequence (P63086 whole entry L232A): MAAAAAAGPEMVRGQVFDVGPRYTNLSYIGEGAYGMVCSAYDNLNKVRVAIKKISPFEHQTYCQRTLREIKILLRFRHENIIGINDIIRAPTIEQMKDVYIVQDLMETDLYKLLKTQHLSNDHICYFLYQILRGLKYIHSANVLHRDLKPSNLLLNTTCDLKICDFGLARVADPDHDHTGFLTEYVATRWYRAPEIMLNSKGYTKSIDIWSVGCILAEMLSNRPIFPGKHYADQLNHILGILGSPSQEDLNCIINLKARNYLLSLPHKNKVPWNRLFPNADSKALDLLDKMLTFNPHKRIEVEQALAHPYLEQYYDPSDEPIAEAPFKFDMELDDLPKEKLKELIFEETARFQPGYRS
- ASSAY PROCEDURE: Fluorescence quenching (FQ) binding affinity
- ASSAY CONDITIONS: read-out: KD L232A (Site 5)
READOUT NAME: pKd
Remember the convention: pKd equals -log10 of concentration in molar.

### Prompt Under ERK2 L232A (Rattus norvegicus (Rat), UniProt P63086, L232A): pKd value of O=S1(=O)C=CC(OS(=O)(=O)c2ccccc2)C1 (stereo not shown) ?
### Response 6.89

###

Collected Cell Viability (% of Vehicle) HeLa values appear next to each entry.
- Tested on: HeLa cervical carcinoma cells
- ASSAY PROCEDURE: Cell proliferation WST-1 assay, single dose (Example 4)
- Assay type: cell-based
- ASSAY CONDITIONS: 100 μM, 48 hours

COMPOUND	READOUT NAME	MEASURED RESULT
CCOc1ccc(/C=C2\SC(=O)N(CCNS(=O)(=O)c3cn(C)cn3)C2=O)cc1 [Compound 27c]	Cell Viability (% of Vehicle) HeLa	91 ± 5 % of Vehicle
N#Cc1ccc(COc2ccccc2/C=C2\SC(=O)N(CCN)C2=O)cc1 [Compound 30l]	Cell Viability (% of Vehicle) HeLa	8.0 ± 2 % of Vehicle
CCCc1ccc(/C=C2\SC(=O)N(CCN)C2=O)cc1 [Compound 30e]	Cell Viability (% of Vehicle) HeLa	11 ± 2 % of Vehicle
CCOc1ccc(/C=C2\SC(=O)N(Cc3cccc(C(=O)O)c3)C2=O)cc1 [Compound 28r]	Cell Viability (% of Vehicle) HeLa	75 ± 4 % of Vehicle
CCOc1ccc(/C=C2\SC(=O)N(CCNC(=O)OCC3c4ccccc4-c4ccccc43)C2=O)cc1 [Compound 26e]	Cell Viability (% of Vehicle) HeLa	85 ± 4 % of Vehicle
CCOc1ccc(/C=C2\SC(=O)N(CC(=O)OC(C)(C)C)C2=O)cc1 [Compound 28g]	Cell Viability (% of Vehicle) HeLa	88 ± 7 % of Vehicle

### Prompt Query (compound): "CCOc1ccc(/C=C/C(=O)NCCN)cc1" ; field requested: Cell Viability (% of Vehicle) HeLa
### Response 94 ± 5 % of Vehicle

### Prompt Also CCOc1ccccc1/C=C1\SC(=O)N(CCN)C1=O [Compound 30c] , if possible.
### Response 39 ± 3 % of Vehicle

### Prompt Also CCOc1ccc(/C=C2\SC(=O)N(Cc3ccncc3)C2=O)cc1 [Compound 28l] , if possible.
### Response 81 ± 5 % of Vehicle

###

- Test system: HeLa cervical carcinoma cells
- ASSAY PROCEDURE: Colony formation assay
- Assay type: cell-based
- ASSAY CONDITIONS: Homo sapiens, read-out: IC50 growth inhibition, colony formation, HeLa
READOUT NAME: IC50

### Prompt Query (molecule): "CCOc1ccc(/C=C2\SC(=O)N(CCN)C2=O)cc1" ; field requested: IC50
### Response ~20 µM

###

- System: HL-60 leukemic cells
- ASSAY PROCEDURE: Cell proliferation WST-1 assay, single dose (Example 4)
- Assay type: cell-based
- ASSAY CONDITIONS: 100 μM, 48 hours
Collected Cell Viability (% of Vehicle) HL-60 values appear next to each entry.

Reference set, count: 4
COMPOUND	TEST TARGET	MEASURED RESULT
CCOc1ccc(/C=C2\SC(=O)N(Cc3cccc(C(=O)O)c3)C2=O)cc1 [Compound 28r]	HL-60 leukemic cells	41 ± 22 % of Vehicle
CCOc1ccc(/C=C2\SC(=O)N(CCNC(=O)OC(C)(C)C)C2=O)cc1 [Compound 26b]	HL-60 leukemic cells	95 ± 21 % of Vehicle
CCOc1ccc(/C=C2\SC(=O)N(CC(C)N)C2=O)cc1 (centres unmarked) [Compound 22b]	HL-60 leukemic cells	7.3 ± 3 % of Vehicle
CCOc1ccc(/C=C2\SC(=O)N(CCNS(C)(=O)=O)C2=O)cc1 [Compound 27a]	HL-60 leukemic cells	82 ± 44 % of Vehicle

Attention now turns to another entry.
### Prompt Under HL-60 leukemic cells: Cell Viability (% of Vehicle) HL-60 value of CCOc1ccc(/C=C2\SC(=O)N(Cc3ccccn3)C2=O)cc1 [Compound 28j] ?
### Response 89 ± 31 % of Vehicle

###

Collected Cell Viability (% of Vehicle) SK-MEL-28 values appear next to each entry.
- Tested on: SK-MEL-28 melanoma cells
- ASSAY PROCEDURE: Cell proliferation WST-1 assay, single dose (Example 4)
- Type: cell-based
- ASSAY CONDITIONS: 100 μM, 48 hours

Reference set, count: 5
COMPOUND	Cell Viability (% of Vehicle) SK-MEL-28
CCOc1ccc(/C=C2\SC(=O)N(CCNC(=O)OCC(C)C)C2=O)cc1 [Compound 26c]	94 ± 1 % of Vehicle
[H]/N=C(/N)NCCN1C(=O)SC(=Cc2ccc(OCC)cc2)C1=O [Compound 28c]	55 ± 6 % of Vehicle
CCOc1ccc(/C=C2\SC(=O)N(Cc3ccc(C#N)cc3)C2=O)cc1 [Compound 28m]	97 ± 7 % of Vehicle
CCOc1ccc(/C=C2\SC(=O)N(CC(=O)O)C2=O)cc1 [Compound 28h]	106 ± 1 % of Vehicle
CCOc1ccc(/C=C/C(=O)NCCN)cc1	83 ± 4 % of Vehicle

### Prompt Query (compound): CCOc1ccc(/C=C2\SC(=O)N(CC(=O)OC(C)(C)C)C2=O)cc1 [Compound 28g] ; field requested: Cell Viability (% of Vehicle) SK-MEL-28
### Response 101 ± 2 % of Vehicle

### Prompt Also NCCN1C(=O)S/C(=C\c2ccccc2OCc2ccccc2)C1=O [Compound 30k] , if possible.
### Response 0.6 ± 0.04 % of Vehicle

### Prompt Also CCOc1ccc(/C=C2\SC(=O)N(CCNC(=O)OCC3c4ccccc4-c4ccccc43)C2=O)cc1 [Compound 26e] , if possible.
### Response 29 ± 7 % of Vehicle

###

- Test system: HL-60 leukemic cells
- ASSAY PROCEDURE: Cell proliferation WST-1 assay, single dose (Example 4)
- Assay type: cell-based
- ASSAY CONDITIONS: 100 μM, 48 hours
Collected Cell Viability (% of Vehicle) HL-60 values appear next to each entry.

Reference set, count: 2
COMPOUND	MEASURED RESULT
CCOc1ccccc1/C=C1\SC(=O)N(CCN)C1=O [Compound 30c]	8.9 ± 4 % of Vehicle
CCOc1ccc(/C=C2\SC(=O)N(CCNS(=O)(=O)c3ccc(C#N)cc3)C2=O)cc1 [Compound 27b]	101 ± 52 % of Vehicle

Attention now turns to another entry.
### Prompt Query (compound): Cc1ccc(/C=C2\SC(=O)N(CCN)C2=O)cc1 [Compound 30d] ; field requested: Cell Viability (% of Vehicle) HL-60
### Response 4.8 ± 2 % of Vehicle

###

- Tested on: HL-60 leukemic cells
- ASSAY PROCEDURE: Cell proliferation WST-1 assay, single dose (Example 4)
- Assay type: cell-based
- ASSAY CONDITIONS: 100 μM, 48 hours
Collected Cell Viability (% of Vehicle) HL-60 values appear next to each entry.

Reference set, count: 10
MOLECULE	Cell Viability (% of Vehicle) HL-60
CCOc1ccc(/C=C2\SC(=O)N(Cc3cccnc3)C2=O)cc1 [Compound 28k]	65 ± 12 % of Vehicle
CCOc1ccc(/C=C2\SC(=O)N(CCNCc3ccccc3)C2=O)cc1 [Compound 23d]	5.0 ± 2 % of Vehicle
CCCc1ccc(/C=C2\SC(=O)N(CCN)C2=O)cc1 [Compound 30e]	5.9 ± 2 % of Vehicle
CCOc1ccc(/C=C2\SC(=O)N(Cc3ccncc3)C2=O)cc1 [Compound 28l]	82 ± 54 % of Vehicle
CCOc1ccc(/C=C2\SC(=O)N(CCO)C2=O)cc1 [Compound 28e]	91 ± 19 % of Vehicle
CCOc1ccc(/C=C2\CCN(CCN)C2=O)cc1	73 ± 9 % of Vehicle
CCOc1ccc(/C=C2\SC(=O)N(CC(=O)O)C2=O)cc1 [Compound 28h]	97 ± 27 % of Vehicle
NCCN1C(=O)S/C(=C\c2ccccc2)C1=O [Compound 30a]	28 ± 20 % of Vehicle
CCOc1ccc(CC2SC(=O)N(CCN)C2=O)cc1 (centres unmarked)	41 ± 17 % of Vehicle
CCOc1ccc(/C=C2\SC(=O)NC2=O)cc1	103 ± 16 % of Vehicle

### Prompt Query (molecule): CCOc1ccc(/C=C2\SC(=O)N(Cc3ccc(C(=O)OC(C)(C)C)cc3)C2=O)cc1 [Compound 28p] ; field requested: Cell Viability (% of Vehicle) HL-60
### Response 98 ± 24 % of Vehicle
